- system-under-test: CDK10/Cyclin L2 (Homo sapiens)
- Sequence (Q15131 whole entry): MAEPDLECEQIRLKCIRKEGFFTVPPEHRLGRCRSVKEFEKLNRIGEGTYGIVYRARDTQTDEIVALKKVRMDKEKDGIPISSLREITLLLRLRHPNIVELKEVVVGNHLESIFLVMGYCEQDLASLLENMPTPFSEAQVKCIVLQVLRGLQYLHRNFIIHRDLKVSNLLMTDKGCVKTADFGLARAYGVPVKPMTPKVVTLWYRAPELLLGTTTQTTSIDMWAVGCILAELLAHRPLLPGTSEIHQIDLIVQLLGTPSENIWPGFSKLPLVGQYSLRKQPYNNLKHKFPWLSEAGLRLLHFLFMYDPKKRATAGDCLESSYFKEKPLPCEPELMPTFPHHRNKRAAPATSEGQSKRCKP
- measurement-protocol: NanoBRET live-cell target engagement, CDK10-NanoLuc/Cyclin L2 in HEK-293
- assay-setup: read-out: CDK10/L2 Inhibition at 10µM (%), 10µM; independent experiment 2

{"compound": "CC[C@H](CO)Nc1nc(NCc2ccccc2)c2ncn(C(C)C)c2n1 [Roscovitine]", "system-under-test": "CDK10/Cyclin L2 (Homo sapiens)", "inhibition at 10 µM [%]": 9}
{"compound": "CN(C)C(=O)c1cc2cnc(Nc3ccc(N4CCNCC4)cn3)nc2n1C1CCCC1 [Ribociclib]", "system-under-test": "CDK10/Cyclin L2 (Homo sapiens)", "inhibition at 10 µM [%]": 5.4}
{"compound": "CN(C)C/C=C/C(=O)Nc1ccc(C(=O)N2CCC[C@@H](Nc3ncc(Cl)c(-c4c[nH]c5ccccc45)n3)C2)cc1 [THZ531]", "system-under-test": "CDK10/Cyclin L2 (Homo sapiens)", "inhibition at 10 µM [%]": 60.7}
{"compound": "CC(C)[C@H](CO)Nc1nc(Nc2ccc(C(=O)O)c(Cl)c2)c2ncn(C(C)C)c2n1 [Purvalanol B]", "system-under-test": "CDK10/Cyclin L2 (Homo sapiens)", "inhibition at 10 µM [%]": -1.5}

###

- system-under-test: CDK5/CDK5R1 (Homo sapiens, UniProt Q00535)
- Sequence (Q00535 whole entry): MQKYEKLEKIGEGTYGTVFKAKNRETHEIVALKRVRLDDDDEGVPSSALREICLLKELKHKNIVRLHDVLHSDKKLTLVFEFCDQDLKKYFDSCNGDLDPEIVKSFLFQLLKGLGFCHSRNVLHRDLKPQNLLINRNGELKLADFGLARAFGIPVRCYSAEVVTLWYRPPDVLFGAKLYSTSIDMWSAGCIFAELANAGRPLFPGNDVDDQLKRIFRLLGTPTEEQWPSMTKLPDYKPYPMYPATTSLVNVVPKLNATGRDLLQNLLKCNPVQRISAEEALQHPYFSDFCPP
- Sequence (Q15078 whole entry partner): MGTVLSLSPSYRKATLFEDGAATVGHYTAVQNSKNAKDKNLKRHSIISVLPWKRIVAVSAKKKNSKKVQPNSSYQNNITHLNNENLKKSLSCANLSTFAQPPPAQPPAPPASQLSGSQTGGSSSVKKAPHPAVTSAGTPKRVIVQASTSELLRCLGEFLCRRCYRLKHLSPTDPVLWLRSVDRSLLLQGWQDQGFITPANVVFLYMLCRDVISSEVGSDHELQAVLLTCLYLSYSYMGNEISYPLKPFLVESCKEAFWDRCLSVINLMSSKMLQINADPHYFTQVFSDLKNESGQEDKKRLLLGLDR
- measurement-protocol: NanoBRET live-cell target engagement, CDK5-NanoLuc/CDK5R1 in HEK-293
- Assay type: binding
- assay-setup: 10µM; average of experiments
measured-endpoint: CDK5/CDK5R1 Inhibition at 10µM (%)

{"compound": "O=C1NC(=NCc2cccs2)S/C1=C\\c1ccc2ncccc2c1", "measured": -1.8}
{"compound": "Cc1c(Br)c(Br)c2c3c1nc(N1CCNCC1)n3CCC2.Cl [SEL 120-34A]", "measured": 46.5}
{"compound": "CN(C)C/C=C/C(=O)Nc1ccc(C(=O)Nc2cccc(Nc3ncc(Cl)c(-c4c[nH]c5ccccc45)n3)c2)cc1", "measured": 42.5}
{"compound": "O=C1NCCc2[nH]c(-c3ccncc3)cc21", "measured": 37.1}

###

- system-under-test: CDK8/Cyclin C (Homo sapiens, UniProt P49336)
- Sequence (P49336 whole entry): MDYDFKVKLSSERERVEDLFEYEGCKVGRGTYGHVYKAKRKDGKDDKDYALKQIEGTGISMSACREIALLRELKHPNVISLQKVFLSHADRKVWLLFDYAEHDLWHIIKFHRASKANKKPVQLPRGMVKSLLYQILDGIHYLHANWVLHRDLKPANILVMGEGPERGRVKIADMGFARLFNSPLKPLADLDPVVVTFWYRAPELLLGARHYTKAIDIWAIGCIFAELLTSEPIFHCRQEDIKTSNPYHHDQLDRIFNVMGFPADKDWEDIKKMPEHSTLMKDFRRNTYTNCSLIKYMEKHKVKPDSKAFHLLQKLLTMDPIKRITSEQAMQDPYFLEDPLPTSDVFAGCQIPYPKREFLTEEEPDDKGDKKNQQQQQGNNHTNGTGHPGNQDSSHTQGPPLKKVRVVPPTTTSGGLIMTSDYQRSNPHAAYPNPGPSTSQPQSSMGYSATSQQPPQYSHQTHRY
- Sequence (P24863 whole entry partner): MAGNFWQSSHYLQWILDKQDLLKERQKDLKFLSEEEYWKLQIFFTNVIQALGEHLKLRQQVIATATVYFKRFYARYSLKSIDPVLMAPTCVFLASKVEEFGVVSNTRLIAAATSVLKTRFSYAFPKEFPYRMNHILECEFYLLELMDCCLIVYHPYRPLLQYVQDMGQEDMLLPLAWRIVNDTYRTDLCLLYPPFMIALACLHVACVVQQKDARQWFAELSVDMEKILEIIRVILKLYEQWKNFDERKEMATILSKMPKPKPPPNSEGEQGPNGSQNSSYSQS
- measurement-protocol: NanoBRET live-cell target engagement, NanoLuc-CDK8/Cyclin C in HEK-293
- Assay type: binding
- assay-setup: IC50 (nM), CDK8/C; experiment 1
The entries below are paired with their reported IC50.
measured-endpoint: IC50 (nM)

{"smiles-entry": "COC1CN(C(=O)c2ccc3c(N)ncc(-c4ccc(-c5cnn(C)c5)cc4)c3n2)C1", "unit-label": "nM", "measured": 2.6}
{"smiles-entry": "Cn1cc(-c2ccc(-c3cncc(Cl)c3N3CCC4(CCNC4=O)CC3)cc2)cn1", "unit-label": "nM", "measured": 2}

###

- system-under-test: CDK13/Cyclin K (Homo sapiens)
- Sequence (O75909 whole entry): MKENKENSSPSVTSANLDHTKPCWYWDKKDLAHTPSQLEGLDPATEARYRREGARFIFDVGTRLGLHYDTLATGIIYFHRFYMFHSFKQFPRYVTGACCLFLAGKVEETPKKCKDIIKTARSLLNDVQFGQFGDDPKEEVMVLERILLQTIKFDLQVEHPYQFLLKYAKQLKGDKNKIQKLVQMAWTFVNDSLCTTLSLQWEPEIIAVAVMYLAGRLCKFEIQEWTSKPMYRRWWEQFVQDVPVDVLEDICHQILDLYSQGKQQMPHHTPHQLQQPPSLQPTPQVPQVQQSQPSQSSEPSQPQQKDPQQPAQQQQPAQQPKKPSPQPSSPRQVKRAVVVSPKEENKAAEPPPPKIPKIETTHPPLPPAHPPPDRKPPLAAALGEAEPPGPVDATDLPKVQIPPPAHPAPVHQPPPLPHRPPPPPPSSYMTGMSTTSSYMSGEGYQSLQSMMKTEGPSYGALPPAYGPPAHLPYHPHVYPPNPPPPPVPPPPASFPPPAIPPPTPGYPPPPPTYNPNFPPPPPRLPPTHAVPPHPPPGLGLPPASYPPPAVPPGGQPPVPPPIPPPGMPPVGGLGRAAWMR
- Sequence (Q14004 other isoform, or with tags, fused parts or gaps): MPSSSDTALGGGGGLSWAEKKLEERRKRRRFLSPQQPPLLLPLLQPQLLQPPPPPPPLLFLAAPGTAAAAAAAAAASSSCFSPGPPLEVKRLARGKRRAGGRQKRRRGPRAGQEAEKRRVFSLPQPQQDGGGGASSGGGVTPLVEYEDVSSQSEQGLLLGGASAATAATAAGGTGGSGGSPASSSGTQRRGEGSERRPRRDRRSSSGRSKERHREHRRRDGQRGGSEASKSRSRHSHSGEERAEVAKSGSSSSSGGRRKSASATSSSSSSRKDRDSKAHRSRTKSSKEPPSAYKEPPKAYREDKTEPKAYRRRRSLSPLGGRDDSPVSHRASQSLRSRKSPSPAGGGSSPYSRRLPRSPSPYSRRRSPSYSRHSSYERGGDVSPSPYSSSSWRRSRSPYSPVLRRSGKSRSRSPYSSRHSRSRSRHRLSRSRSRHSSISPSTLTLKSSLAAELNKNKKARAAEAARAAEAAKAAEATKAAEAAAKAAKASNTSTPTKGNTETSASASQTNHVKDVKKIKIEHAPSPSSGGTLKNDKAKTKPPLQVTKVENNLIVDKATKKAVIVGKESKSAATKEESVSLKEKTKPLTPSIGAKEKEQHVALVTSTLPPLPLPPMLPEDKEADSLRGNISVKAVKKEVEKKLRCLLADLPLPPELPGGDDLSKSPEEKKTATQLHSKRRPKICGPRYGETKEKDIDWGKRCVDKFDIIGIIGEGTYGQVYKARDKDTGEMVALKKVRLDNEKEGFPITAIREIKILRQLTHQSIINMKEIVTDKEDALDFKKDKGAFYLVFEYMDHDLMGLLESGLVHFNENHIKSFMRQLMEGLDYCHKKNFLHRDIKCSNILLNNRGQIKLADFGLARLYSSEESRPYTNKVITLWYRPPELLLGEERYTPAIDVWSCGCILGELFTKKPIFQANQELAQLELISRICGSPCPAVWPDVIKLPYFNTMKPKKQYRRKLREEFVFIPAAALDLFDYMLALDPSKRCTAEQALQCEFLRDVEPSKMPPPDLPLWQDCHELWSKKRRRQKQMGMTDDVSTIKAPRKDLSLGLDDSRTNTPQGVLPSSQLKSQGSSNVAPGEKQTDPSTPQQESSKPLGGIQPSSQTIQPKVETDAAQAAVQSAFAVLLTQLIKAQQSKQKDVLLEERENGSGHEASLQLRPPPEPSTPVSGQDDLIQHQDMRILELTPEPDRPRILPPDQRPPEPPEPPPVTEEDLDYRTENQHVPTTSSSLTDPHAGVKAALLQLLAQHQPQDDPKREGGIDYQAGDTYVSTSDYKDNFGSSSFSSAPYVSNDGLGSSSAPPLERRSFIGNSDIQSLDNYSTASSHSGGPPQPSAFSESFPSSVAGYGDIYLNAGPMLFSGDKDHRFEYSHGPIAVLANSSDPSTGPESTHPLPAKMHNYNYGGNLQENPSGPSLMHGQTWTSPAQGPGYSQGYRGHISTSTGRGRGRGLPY
- measurement-protocol: NanoBRET live-cell target engagement, CDK13-NanoLuc/Cyclin K in HEK-293
- Type: binding
- assay-setup: CDK13/K; 10µM

{"compound": "CNC1CCN(C(=O)c2ccc(Nc3ncc(F)c(-c4cnc(C)n4C(C)C)n3)cc2)C1 (stereo not shown)", "Inhibition at 10µM (%) Replicate 1": 42.5}
{"compound": "CC(C)c1cnn2c(NCc3ccccc3)cc(N[C@@H](CO)[C@H](O)CO)nc12", "Inhibition at 10µM (%) Replicate 1": 38.2}
{"compound": "CCC(CO)Nc1nc(Nc2cccc(-c3ccccn3)c2)c2ncn(C(C)C)c2n1.Cl.O [(R) - DRF053]", "Inhibition at 10µM (%) Replicate 1": 7.7}
{"compound": "O=C(Nc1c[nH]nc1-c1ccccn1)c1nn(C2CCNCC2)cc1Cl", "Inhibition at 10µM (%) Replicate 1": 3.0}
